All values here come from patent EP0891764B1.

Each entry below lists one item and its recorded Solubility (w/w %) value.
experiment: Solubility in 70% ethanol at 10°C
Use w/w % as the unit, but write only the number.

> print(dat)
                                chem.smiles  unit.of.measurement  reading
1  CCCCCCCCCCCCCCC(=O)N[C@@H](CC(=O)O)C(=O)O                w/w %      0.3
2       CCCCCCCCCCCCCCC(=O)N[C@@H](C)C(=O)O                w/w %      0.8
3  CCCCCCCCCCCCCCC(=O)N[C@@H](CC(C)C)C(=O)O                w/w %      2.1

Query block: Looking for the measured Solubility (w/w %) of CCCCCCCCCCCCCCC(=O)N[C@@H](Cc1ccc(O)cc1)C(=O)O , can you help?
Result block: 0.7
